- Test system: Renilla luciferase RNA
- PROTOCOL_DETAILS: Barcoded aptazyme variant library screen: un-cleaved Renilla luciferase RNA by barcode read counts, HEK293-T cells
- Assay type: cell-based
- EXPERIMENTAL_CONTEXT: un-cleaved Renilla luciferase RNA, HEK293-T cells cultured with 1 mM theophylline (ON) over without theophylline (OFF); barcode read counts, triplicate
OUTCOME_MEASURE: Fold change in RNA expression between the ON state and the OFF state (fold)

molecule="RA047 (nucleic acid, expressed or natural sequence) DNA: GCGCGTCCTGGATTCGCGGAAACGCGTACATCCAGCTGACGAGTCCCAGGAATACCAGCATCGTCTTGATGCCCTTGGAAGTCCAATAGGACGAAACGCGC" value=2.0
molecule="RA288 (nucleic acid, expressed or natural sequence) DNA: GCGCGTCCTGGATTCGCGGAAACGCGTACATCCAGCTGACGAGTCCCAAATAAGTGATACCAGCATCGTCTTGATGCCCTTGGCAGCACTGGACGAAACGCGC" value=1.0
